The origin of these recorded values is PubChem BioAssay (NCI).

- Tested on: SK-MEL-2 melanoma
- Test Name: NCI-60 one-dose screen, 48 h (100 = growth as untreated, 0 = no growth, -100 = all killed)
- Conditions Used: 10 µM unless noted
This is part of a sample that, as a whole, favours compounds with a hit. Of some 83,000 tested, about 20% had one in any assay.
For each record, check the reported growth: if it is below 10% write T, else write F.

[Q] Is growth of CCOC(=O)C(C)(C#N)C1C=CCCC1 (stereo not given) strictly below 10%?
[A] F

[Q] Quick check: growth of CC(C)CC1C(=O)N2CCC[C@H]2C2(O)O[C@](NC(=O)C3C=C4c5cccc6[nH]c(Br)c(c56)C[C@H]4N(C)C3)(C(C)C)C(=O)N12 (stereo not given in full) under 10%?
[A] F

[Q] Determine whether this molecule shows growth lower than 10% (ties excluded): "CCOC(=O)c1csc(NC(=O)COc2cccc(/C=C3\CSc4ccccc4C3=O)c2)n1"
[A] T

[Q] Is it true that growth reported for "COc1ccc2c(c1)c(-c1nonc1-c1cn(C)c3ccccc13)cn2C" is less than 10%?
[A] F

[Q] Does "COc1cc(C(=O)/C=C/c2cccnc2Nc2ccc(Cl)cc2)cc(OC)c1OC" have growth strictly under 10%?
[A] T

[Q] growth strictly < 10% for this molecule? "O=C1/C(=C/c2ccc3c(c2)OCO3)SC(=S)N1CCc1ccc(O)cc1"
[A] F

[Q] Input "O=C1C=CC(=O)N1c1ccc2c(c1)Cc1cc(F)ccc1-2" ; condition: growth strictly below 10%. Does it hold?
[A] F

[Q] Please check: growth for "CNc1ccc(-c2cc(=O)oc3ccc(Cl)cc23)cc1" , strictly under 10% or not?
[A] F

[Q] State whether 10% exceeds growth recorded for "O=C(COc1ccc(-c2nc3cc(Cl)c(Cl)cc3[nH]2)cc1)N=Nc1c(O)[nH]c2ccccc12" .
[A] F

[Q] Consider "CCC#CC[C@H](O)C/C=C1/C(=O)C=C[C@@H]1C/C=C\CCCC(=O)OC" . Does its growth lie strictly below 10%?
[A] T

----------
- Test system: IGROV1 ovarian
- Test Name: NCI-60 one-dose screen, 48 h
- Conditions Used: 10 µM unless noted
Compounds without any hit were thinned out: in the full panel of roughly 83,000, 20% have a hit. Calls of active or inactive are those of the source. How the source made its calls: active means growth percent below 10; inactive means the rest.
Please reply with one of these outcomes: active, inactive

Known results for compounds:
1. CCN(CC)c1ccc(-c2cc(-c3cc(OC)c(OC)c(OC)c3)nc(N3CCOCC3)c2C#N)cc1 | inactive
2. COc1cc(-c2nn(-c3ccc(Br)cc3)cc2C(=O)O)ccc1O | inactive
3. O=C1C=CC(=O)N1c1ccc2c(c1)Cc1cc(F)ccc1-2 | inactive

[Q] Assay outcome for Cc1cc(N2CCCCC2)nc(NC2CCCC(Nc3ccnc4cc(Cl)ccc34)C2)n1 (stereo not given) : what was it?
[A] active

[Q] # fetch the recorded call for "N#Cc1c(-c2ccc(Cl)cc2)nc(N=Nc2c(O)[nH]c3ccc(Cl)cc23)nc1N1CCOCC1" here
[A] inactive

[Q] Could you please tell me the result logged for "O=CNc1ccc2c(c1)Cc1cccc(NC=O)c1-2" in this assay?
[A] inactive

[Q] I'd appreciate the recorded outcome for CCOc1cc2ncc(C#N)c(Nc3ccc(F)c(Cl)c3)c2cc1NC(=O)CC1CCSS1 (stereo not given) from this test.
[A] active

[Q] Call for entry "CC(C)(O)c1cn(CCCCN2C(=O)C(=O)c3ccccc32)nn1" :
[A] inactive

[Q] Dear colleague, could you share the recorded outcome for "COc1cccc(-c2nc3sccn3c2-c2ccnc(NCCNS(=O)(=O)c3ccc(F)cc3)c2)c1" when you have a moment?
[A] inactive

[Q] What did the test return for "COc1cc(/C=C/C(=O)c2c(C)oc3nc[nH]c(=O)c23)cc(OC)c1OC" ?
[A] inactive
